The reported numbers originate from the Human Domainome abundance scans (Beltran et al. 2025).

Consider the following variants; for each one, report its abundance fitness.
B1: POU domain, class 4, transcription factor 1, residues 266 to 347; numbered along this chain, Q01851 (parent)
chain: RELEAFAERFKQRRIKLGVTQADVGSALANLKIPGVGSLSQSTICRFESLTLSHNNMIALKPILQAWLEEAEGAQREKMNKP

- Variants of: B1
- method notes: abundance fitness (aPCA) (normalised: wild type 0, dead -1); higher = more abundant; growth selection in yeast, the domain comes from the species named
- experimental parameters: Homo sapiens
I only need the number, thanks.

[Q] State the recorded abundance fitness for this entry: `D23L`
[A] -0.281

[Q] State the recorded abundance fitness for this entry: `R13P`
[A] -1.06

[Q] State the recorded abundance fitness for this entry: `F10I`
[A] -0.676

[Q] State the recorded abundance fitness for this entry: `N30C`
[A] -0.337

[Q] State the recorded abundance fitness for this entry: `L68V`
[A] -0.074

[Q] State the recorded abundance fitness for this entry: `R76T`
[A] 0.008

[Q] State the recorded abundance fitness for this entry: `H54M`
[A] 0.044

[Q] State the recorded abundance fitness for this entry: `Q75E`
[A] -0.01

[Q] State the recorded abundance fitness for this entry: `L64E`
[A] -0.709

[Q] State the recorded abundance fitness for this entry: `A5G`
[A] -0.039

[Q] State the recorded abundance fitness for this entry: `S26P`
[A] -0.221

[Q] State the recorded abundance fitness for this entry: `I63Q`
[A] -0.247

[Q] State the recorded abundance fitness for this entry: `K61M`
[A] -0.1

[Q] State the recorded abundance fitness for this entry: `A29P`
[A] -0.184

[Q] State the recorded abundance fitness for this entry: `G35D`
[A] -0.142

[Q] State the recorded abundance fitness for this entry: `S40H`
[A] -0.159

[Q] State the recorded abundance fitness for this entry: `A66H`
[A] 0.001

[Q] State the recorded abundance fitness for this entry: `N80Y`
[A] -0.037

[Q] State the recorded abundance fitness for this entry: `F6C`
[A] -0.478

[Q] State the recorded abundance fitness for this entry: `E48H`
[A] -1.12

[Q] State the recorded abundance fitness for this entry: `A71Q`
[A] -0.051

[Q] State the recorded abundance fitness for this entry: `V19C`
[A] -0.104

[Q] State the recorded abundance fitness for this entry: `K11Y`
[A] -0.642

[Q] State the recorded abundance fitness for this entry: `Q65A`
[A] -0.041

[Q] State the recorded abundance fitness for this entry: `F47S`
[A] -0.717

[Q] State the recorded abundance fitness for this entry: `G25D`
[A] 0.037

[Q] State the recorded abundance fitness for this entry: `M57H`
[A] -0.399

[Q] State the recorded abundance fitness for this entry: `T43A`
[A] -0.044

[Q] State the recorded abundance fitness for this entry: `E70M`
[A] -0.1

[Q] State the recorded abundance fitness for this entry: `Q12N`
[A] 0.031

[Q] State the recorded abundance fitness for this entry: `L31P`
[A] -0.26

[Q] State the recorded abundance fitness for this entry: `A27Y`
[A] -0.041

[Q] State the recorded abundance fitness for this entry: `A66K`
[A] 0.044

[Q] State the recorded abundance fitness for this entry: `S42T`
[A] 0.029

[Q] State the recorded abundance fitness for this entry: `V19M`
[A] 0.096

[Q] State the recorded abundance fitness for this entry: `W67R`
[A] -0.639

[Q] State the recorded abundance fitness for this entry: `S38W`
[A] -0.095

[Q] State the recorded abundance fitness for this entry: `L60W`
[A] -0.605

[Q] State the recorded abundance fitness for this entry: `K61C`
[A] -0.012

[Q] State the recorded abundance fitness for this entry: `L50W`
[A] -0.233

[Q] State the recorded abundance fitness for this entry: `I58G`
[A] -0.147

[Q] State the recorded abundance fitness for this entry: `L68I`
[A] 0.037

[Q] State the recorded abundance fitness for this entry: `L28H`
[A] -0.332

[Q] State the recorded abundance fitness for this entry: `F47E`
[A] -0.819

[Q] State the recorded abundance fitness for this entry: `K81H`
[A] -0.432

[Q] State the recorded abundance fitness for this entry: `S53I`
[A] -0.173
